Origin of values: patent US10988474B2

- studySystem: human prostanoid IP receptor (Homo sapiens)
- Construct: expressed in transfected cells
- Sequence (P43119 whole entry): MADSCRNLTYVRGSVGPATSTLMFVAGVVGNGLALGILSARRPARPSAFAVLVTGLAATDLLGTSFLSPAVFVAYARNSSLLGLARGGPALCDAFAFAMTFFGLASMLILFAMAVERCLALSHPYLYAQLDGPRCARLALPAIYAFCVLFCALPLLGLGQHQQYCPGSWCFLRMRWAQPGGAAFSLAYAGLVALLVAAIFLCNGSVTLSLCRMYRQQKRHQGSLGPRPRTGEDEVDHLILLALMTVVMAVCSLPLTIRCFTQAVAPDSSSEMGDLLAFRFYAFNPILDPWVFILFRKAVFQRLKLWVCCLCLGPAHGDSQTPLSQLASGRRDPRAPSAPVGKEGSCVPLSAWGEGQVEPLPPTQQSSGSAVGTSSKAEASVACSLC
- assayProcedure: FLIPR Ca2+ signaling PG antagonist assay, IP stable cell line
- Type: cell-based
- conditionLabel: HEK-293 EBNA cells, human recombinant IP, no exogenous G-protein; standard agonist Cicaprost
Answer each item with its documented Kb.
Please answer using a numeric value trailed by its unit.

Cc1nn(Cc2cc(C(F)(F)F)ccc2OCC(C)C)c2ccc(C(=O)O)cc12 [Example 25] = 1030 nM
CCC(CC)COc1ccc(OC(F)(F)F)cc1Cn1ccc2cc(C(=O)O)cnc21 [Example 76] = 1400 nM

Kindly note: human prostanoid IP receptor (Homo sapiens), CC(C)COc1ccc(Br)cc1Cn1ccc2cc(C(=O)O)cnc21 [Example 72] , Kb value reported: 2000 nM

---

- studySystem: human prostanoid EP2 receptor (Homo sapiens)
- Construct: expressed in transfected cells
- Sequence (P43116 whole entry): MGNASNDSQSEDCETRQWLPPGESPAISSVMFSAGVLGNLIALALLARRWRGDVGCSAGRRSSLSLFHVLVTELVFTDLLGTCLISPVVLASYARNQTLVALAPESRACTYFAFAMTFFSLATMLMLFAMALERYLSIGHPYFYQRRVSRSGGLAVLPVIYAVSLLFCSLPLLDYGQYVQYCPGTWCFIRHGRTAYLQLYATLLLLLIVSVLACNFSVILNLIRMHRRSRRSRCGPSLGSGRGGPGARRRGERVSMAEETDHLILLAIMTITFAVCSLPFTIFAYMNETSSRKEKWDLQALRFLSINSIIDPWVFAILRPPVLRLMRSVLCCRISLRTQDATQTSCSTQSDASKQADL
- assayProcedure: FLIPR Ca2+ signaling PG antagonist assay, EP2 stable cell line
- Assay type: cell-based
- conditionLabel: HEK-293 EBNA cells, human recombinant EP2 with chimeric Gqs; standard agonist PGE2
Answer each item with its documented Kb.
Answers are plain numbers, in µM.

Some compounds with recorded Kb:
CCC(CC)COc1ccc(Br)cc1Cn1nc(C)c2cc(C(=O)O)ccc21 [Example 27] = 3.64
Cc1nn(Cc2cc(C(F)(F)F)ccc2OCC(C)C)c2ccc(C(=O)O)cc12 [Example 25] = 9.3
CC(C)(C)COc1ccc(Br)cc1Cn1ncc2cc(C(=O)O)ccc21 [Example 52] = 3.8

What the record says about CCC(CC)COc1ccc(Cl)cc1Cn1nc(C)c2cc(C(=O)O)cnc21 [Example 60] : Kb is 7.5

---

- studySystem: human prostanoid IP receptor (Homo sapiens)
- Construct: expressed in transfected cells
- assayProcedure: FLIPR Ca2+ signaling PG antagonist assay, IP stable cell line
- Assay type: cell-based
- conditionLabel: HEK-293 EBNA cells, human recombinant IP, no exogenous G-protein; standard agonist Cicaprost
Please note: t applies when Kb is 3000 nM or greater, and f applies otherwise.

# check: Kb of CCC(CC)COc1ccc(Cl)cc1Cn1ccc2cc(C(=O)O)ccc21 is greater than or equal to 3000 nM
f

# check: Kb of CC(C)COc1ccc(Br)cc1Cn1cnc2cc(C(=O)O)ccc21 is greater than or equal to 3000 nM
t

# check: Kb of CC(C)COc1ccc(OC(F)(F)F)cc1Cn1ncc2cc(C(=O)O)ccc21 is greater than or equal to 3000 nM
f

# check: Kb of O=C(O)c1ccc2c(cnn2Cc2cc(Br)ccc2OCC2CC2)c1 is greater than or equal to 3000 nM
f

---

- studySystem: human prostanoid EP4 receptor (Homo sapiens, UniProt P35408)
- Construct: expressed in transfected cells
- Sequence (P35408 whole entry): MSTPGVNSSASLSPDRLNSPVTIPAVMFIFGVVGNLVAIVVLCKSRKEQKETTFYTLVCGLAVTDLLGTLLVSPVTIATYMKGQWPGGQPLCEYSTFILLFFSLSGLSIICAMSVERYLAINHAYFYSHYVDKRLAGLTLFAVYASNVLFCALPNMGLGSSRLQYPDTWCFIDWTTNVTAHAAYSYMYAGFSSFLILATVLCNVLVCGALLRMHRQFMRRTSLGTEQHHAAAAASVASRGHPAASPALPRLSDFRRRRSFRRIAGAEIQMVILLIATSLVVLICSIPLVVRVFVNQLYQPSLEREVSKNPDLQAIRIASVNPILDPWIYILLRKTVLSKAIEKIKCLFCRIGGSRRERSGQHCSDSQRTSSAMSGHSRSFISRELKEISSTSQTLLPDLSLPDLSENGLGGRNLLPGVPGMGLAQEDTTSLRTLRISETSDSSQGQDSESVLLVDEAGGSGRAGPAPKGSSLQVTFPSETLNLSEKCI
- assayProcedure: FLIPR Ca2+ signaling PG antagonist assay, EP4 stable cell line
- Assay type: cell-based
- conditionLabel: HEK-293 EBNA cells, human recombinant EP4 with chimeric Gqs; standard agonist PGE2
- Procedure: The above compounds were tested for PG antagonist activity as follows using human recombinant prostanoid receptor (DP1, EP1-4, FP, IP and TP) stable cell lines: In order to measure the response of Gs and Gi coupled prostanoid receptors as a Ca^2+ signal, chimeric G protein cDNAs were used. […] Ca^2+ signaling studies were performed using a FLIPR TETRA system (Molecular Devices, Sunnyvale, Calif., USA) in the 384-format. […] Assay plates were read for 3.5 minutes using the FLIPR^TETRA. […]
assayReadout: Kb (nM)
Numbers only, in nM.

Some compounds with recorded Kb:
CC(C)COc1cc(Cl)c(Cl)cc1Cn1ncc2cc(C(=O)O)ccc21 [Example 49] = 50
CCC(CC)COc1ccc(Br)cc1Cn1c(C)cc2cc(C(=O)O)ccc21 [Example 68] = 9700
O=C(O)c1ccc2c(cnn2Cc2cc(Br)ccc2OCc2ccccc2)c1 [Example 12] = 1150
CCC(CC)COc1ccc(Br)cc1Cn1nc(C)c2cc(C(=O)O)cnc21 [Example 59] = 190
CCC(CC)COc1ccc(Cl)cc1Cn1ncc2cc(C(=O)O)ccc21 [Example 2] = 20

Give me Kb for each of these compounds, listed below.
1. Cc1nn(Cc2cc(Cl)ccc2OCC(C)C)c2ncc(C(=O)O)cc12 [Example 61]
2. Cc1cn(Cc2cc(OC(F)(F)F)ccc2OCC(C)C)c2ccc(C(=O)O)cc12 [Example 75]
3. CCC(CC)COc1ccc(Cl)cc1Cn1nc(C)c2cc(C(=O)O)ccc21 [Example 23]
4. O=C(O)c1ccc2c(cnn2Cc2cc(Br)ccc2OCc2ccc(Cl)cc2)c1 [Example 13]
5. Cc1nn(Cc2cc(C(F)(F)F)ccc2OCC(C)C)c2ccc(C(=O)O)cc12 [Example 25]
6. CCc1nn(Cc2cc(Br)ccc2OCC(C)C)c2ccc(C(=O)O)cc12 [Example 64]
7. CC(C)COc1ccc(Br)cc1Cn1ncc2ccc(C(=O)O)cc21 [Example 42]

[760, 280, 50, 2700, 160, 50, 1800]

Give me Kb for each of these compounds, listed below.
1. Cc1nn(Cc2cc(Cl)ccc2OCC(C)C)c2ccc(C(=O)O)cc12 [Example 24]
2. O=C(O)c1ccc2c(cnn2Cc2cc(Br)ccc2OCC2CC2)c1 [Example 15]
3. CCC(CC)COc1ccc(Cl)cc1Cn1nc(C)c2cc(C(=O)O)cnc21 [Example 60]
4. CCC(CC)COc1ccc(C(F)(F)F)cc1Cn1nc(C)c2cc(C(=O)O)ccc21 [Example 26]
5. CC(C)COc1ccc(OC(F)(F)F)cc1Cn1ccc2cc(C(=O)O)cnc21 [Example 74]

[150, 200, 150, 70, 440]

Give me Kb for each of these compounds, listed below.
1. CC(C)COc1ccc(Br)cc1Cn1ncc2cc(C(=O)O)ccc21 [Example 4]
2. O=C(O)c1ccc2cn(Cc3cc(Br)ccc3OCC3CCCC3)nc2c1 [Example 45]
3. CCC(CC)COc1ccc(OC(F)(F)F)cc1Cn1cc(C)c2cc(C(=O)O)ccc21 [Example 77]
4. CC(C)COc1ccc(Br)cc1Cn1ncc2c(C(=O)O)cccc21 [Example 7]
5. O=C(O)c1ccc2c(cnn2Cc2cc(C(F)(F)F)ccc2OCc2ccc(Cl)cc2)c1 [Example 32]

1. 25
2. 2000
3. 1500
4. 1800
5. 5000

---

- studySystem: human prostanoid EP3 receptor (Homo sapiens, UniProt P43115)
- Construct: expressed in transfected cells
- Sequence (P43115 1-390): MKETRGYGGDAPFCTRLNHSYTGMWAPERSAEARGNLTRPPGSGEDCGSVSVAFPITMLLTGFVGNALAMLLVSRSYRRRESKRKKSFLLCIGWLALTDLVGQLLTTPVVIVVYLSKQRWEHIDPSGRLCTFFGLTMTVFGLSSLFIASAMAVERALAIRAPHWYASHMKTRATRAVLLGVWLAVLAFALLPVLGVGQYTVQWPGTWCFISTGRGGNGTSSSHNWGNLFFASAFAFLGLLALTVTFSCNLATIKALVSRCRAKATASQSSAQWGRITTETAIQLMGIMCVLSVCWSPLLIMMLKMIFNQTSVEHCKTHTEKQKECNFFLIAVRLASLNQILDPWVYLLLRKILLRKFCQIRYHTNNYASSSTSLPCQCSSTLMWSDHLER
- assayProcedure: FLIPR Ca2+ signaling PG antagonist assay, EP3 stable cell line
- Assay type: cell-based
- conditionLabel: HEK-293 EBNA cells, human recombinant EP3 with chimeric Gqi; standard agonist PGE2
Answer each item with its documented Kb.

Some compounds with recorded Kb:
Cc1nn(Cc2cc(OC(F)(F)F)ccc2OCC(C)C)c2ccc(C(=O)O)cc12 [Example 22] = ≥ 10 µM
Cc1nn(Cc2cc(Cl)ccc2OCC(C)C)c2ncc(C(=O)O)cc12 [Example 61] = ≥ 10 µM
CC(C)COc1ccc(Br)cc1Cn1cc2cc(C(=O)O)ccc2n1 [Example 17] = ≥ 10 µM
CC(C)COc1c(F)cc(Cl)cc1Cn1ncc2cc(C(=O)O)ccc21 [Example 47] = ≥ 10 µM
O=C(O)c1ccc2c(cnn2Cc2cc(C(F)(F)F)ccc2OCc2ccc(Cl)cc2)c1 [Example 32] = ≥ 10 µM

Give me Kb for each of these compounds, listed below.
1. CC(C)COc1ccc(OCC(F)F)cc1Cn1ncc2cc(C(=O)O)ccc21 [Example 55]
2. O=C(O)c1cccc2nn(Cc3cc(Cl)ccc3OCc3ccc(Cl)cc3)cc12 [Example 41]
3. CC(C)COc1ccc(Br)cc1Cn1ccc2cc(C(=O)O)ccc21 [Example 67]
4. Cc1cn(Cc2cc(OC(F)(F)F)ccc2OCC(C)C)c2ccc(C(=O)O)cc12 [Example 75]
5. CCC(CC)COc1ccc(Cl)cc1Cn1ncc2ccc(C(=O)O)cc21 [Example 46]
6. Cc1nn(Cc2cc(C(F)(F)F)ccc2OCC(C)C)c2ccc(C(=O)O)cc12 [Example 25]
7. O=C(O)c1ccc2c(cnn2Cc2cc(Cl)ccc2OCC2CC2)c1 [Example 11]
8. CCC(CC)COc1ccc(Cl)cc1Cn1nc(C)c2cc(C(=O)O)cnc21 [Example 60]

1: ≥ 10 µM; 2: ≥ 10 µM; 3: ≥ 10 µM; 4: ≥ 10 µM; 5: ≥ 10 µM; 6: 4.5 µM; 7: 6.5 µM; 8: 5.1 µM

Give me Kb for each of these compounds, listed below.
1. O=C(O)c1cccc2nn(Cc3cc(Cl)ccc3OCC3CC3)cc12 [Example 35]
2. CC(C)COc1ccc(Br)cc1Cn1cnc2cc(C(=O)O)ccc21 [Example 79]
3. CCc1nn(Cc2cc(Br)ccc2OCC(C)C)c2ccc(C(=O)O)cc12 [Example 64]
4. CCC(CC)COc1ccc(Br)cc1Cn1nc(C)c2cc(C(=O)O)cnc21 [Example 59]

1: ≥ 10 µM; 2: 8.7 µM; 3: 2.9 µM; 4: 5.4 µM

Give me Kb for each of these compounds, listed below.
1. O=C(O)c1ccc2c(cnn2Cc2cc(Cl)ccc2OCC2CCCC2)c1 [Example 10]
2. CC(C)COc1ccc(Br)cc1Cn1ncc2cc(C(=O)O)ccc21 [Example 4]

["1.1 µM", "1.5 µM"]
